Hey, just so you know, these numbers are from PubChem BioAssay (NCI).

For each record, write down the corresponding TGI.
system: MOLT-4 leukemia; assay: NCI tumour cell line growth inhibition, 48 h

Would you be so kind as to report TGI for each listed record?
1. O=C1/C(=C/c2ccc3c(c2)OCO3)Sc2scc(-c3ccc(O)c(O)c3)[n+]21
2. CC(C)(C)C1CCP(=O)(c2ccccc2)CC1 (centres undefined)
3. CCc1cccc(C(C)C)c1NC1=C([n+]2ccc(C)cc2)C(=O)c2ccccc2C1=O
4. c1ccc(N=C2C(=Nc3ccccc3)N(C3CCCCC3)C(=NC3CCCCC3)N2c2ccccc2)cc1
5. c1ccc2c(c1)ccc1nc3ccccn3c12
6. CCOC(=O)C/C(N)=C(\C#N)C(=O)OCC

A)
1. > 20.1 µM
2. > 100 µM
3. 9.43 µM
4. > 100 µM
5. > 100 µM
6. > 100 µM

###

system: MOLT-4 leukemia; assay: NCI tumour cell line growth inhibition, 48 h
measurement type: TGI

Some solved entries appear below for comparison.
CN(C)CCCNC(=O)c1cccc2nc3ccccc3nc12	> 100 µM
CCOC(=O)c1c(SC)nc(-c2ccc(Cl)cc2)sc1=N	94 µM
CSC1=N/C(=C\c2ccccc2)C(=O)N1CN1CCOCC1	> 100 µM

Give one value of TGI per listed compound.
1. Cc1ccc(C)c(NC(=O)C(=O)CC(=O)c2cccc3ccccc23)c1
2. CC(=O)NC1CCCN(O)C(=O)/C=C(/C)CCOC(=O)C(NC(C)=O)CCCN(O)C(=O)/C=C(/C)CCOC(=O)C(NC(C)=O)CCCN(O)C(=O)/C=C(/C)CCOC1=O.[Fe] (stereo not given)

A)
> 100 µM
> 100 µM

###

system: SNB-78 CNS; assay: NCI tumour cell line growth inhibition, 48 h
measurement type: TGI

Worked examples follow.
O=c1c2cc(Br)ccc2[nH]c(=S)n1-c1ccccc1	> 100 µM
Cc1ccc(S(=O)(=O)Nc2cccc(C)c2C)cc1	> 100 µM
CCOc1ccc(/C=N\N2C(=O)c3ccccc3C2=O)cc1	> 100 µM
C=C(C)C1Cc2c(cc(OC)c3c(=O)c4ccccc4n(C)c23)O1 (stereo unspecified)	> 100 µM
CC(=O)C(CN(C)Cc1ccccc1)C(c1ccccc1)c1c(O)c2ccccc2oc1=O (stereo unspecified)	> 100 µM

Below are some compounds; for each one, tell me its TGI.
1. COc1ccc2oc(-c3cc4cc(OC)ccc4o3)cc2c1
2. CN=c1ss/c(=N\C(=S)N(C)C)n1C1CCCCC1
3. O=C(Cc1nc2ccc(C(=O)c3ccccc3)cc2[nH]c1=O)C(=O)Nc1ccc(C(F)(F)F)cc1[N+](=O)[O-]
4. Cc1nn2c(=O)n(-c3cccc(-n4nnc5c(-c6ccccc6)c(C)nn5c4=O)c3C)nnc2c1-c1ccccc1

A)
["> 100 µM", "> 31.6 µM", "> 100 µM", "> 100 µM"]

Each compound below has a reported value. Please supply its TGI.
1. CC1=C(C(=O)Nc2cccc(C(F)(F)F)c2)C(c2ccccc2F)C(C(=O)Nc2cccc(C(F)(F)F)c2)=C(C)N1
2. CC(C)(C)c1cc(Oc2ccc(C#N)c(C#N)c2)cc(C(C)(C)C)c1

A)
65.6 µM
> 100 µM

###

Exercise: state measured TGI for each of the molecules provided.
tested on: SN12C renal; assay: NCI tumour cell line growth inhibition, 48 h

Cc1ccc(S(=O)(=O)Nc2cccc(C)c2C)cc1	> 100 µM

The following molecules each have a reported value; give each one's TGI.
1. Cc1ccc(N(C)S(=O)(=O)c2ccccc2)cc1
2. CN(CCNC(=O)c1cn(C)c2c1ccc1cc(Cl)ccc12)CCNC(=O)c1cn(C)c2c1ccc1cc(Cl)ccc12
3. COC(=O)NN/C=C(\C=Nc1ccccc1)[N+](=O)[O-]
4. O=C1CC(NC2CC(=O)c3c(Br)sc(Br)c32)c2c(Br)sc(Br)c21 (stereo not drawn)

A)
> 100 µM
3.37 µM
> 100 µM
3.42 µM
